molecular target: Sigma non-opioid intracellular receptor 1 (Homo sapiens, UniProt Q99720); assay: Displacement [3H]-Pentazocine from sigma 1 receptor (unknown origin) expressed in HEK cell membranes; conditions: read-out: Ki
Sequence (Q99720 whole entry): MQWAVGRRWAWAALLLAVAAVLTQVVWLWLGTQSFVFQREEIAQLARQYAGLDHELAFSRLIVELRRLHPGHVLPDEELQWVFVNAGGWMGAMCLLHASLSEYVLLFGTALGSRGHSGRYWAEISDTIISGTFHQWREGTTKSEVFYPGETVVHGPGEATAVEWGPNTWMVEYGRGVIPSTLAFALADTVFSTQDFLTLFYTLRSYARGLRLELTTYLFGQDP
In this section, each of the compounds is paired with its reported log10 Ki.
Endpoint Name: log10 Ki (log10 of the value in nM)

1) c1ccc(OCCCN2CCN(c3ccccc3)CC2)cc1 = 1.89
2) O=C(CCCN1CCN(c2ccccn2)CC1)c1ccc(F)cc1 = 2.61
3) Fc1ccc(CCCCN2CCN(c3ccc(Cl)cc3)CC2)cc1 = 1.56
4) OC1(c2ccc(Cl)cc2)CC2CCC(C1)N2CCCSc1ccccc1F (stereo unspecified) = 1.76
5) O=C(CCCN1CCN(c2ccc(Cl)cn2)CC1)c1ccc(F)cc1 = 1.40
6) OC1(c2ccc(Cl)cc2)CC2CCC(C1)N2CCCOc1ccc(F)cc1 (stereo unspecified) = 2.22
